- Test system: Staphylococcus aureus
- TEST DETAILS: Antibacterial activity against mecA-positive multidrug resistant Staphylococcus aureus NRS119 incubated for 16 to 20 hrs by microdilution method
- Type: functional
Rule: MIC below 4 µg/mL gives true, anything at or above gives false.

| COMPOUND | CLASS LABEL |
| --- | --- |
| N#Cc1ccc(/C=C/c2nc3ccccc3c(=O)n2-c2cccc(C(=O)O)c2)cc1 | false |

## Input Lab note: confirm whether the reported MIC for this compound is below 4 µg/mL, equality not counting. compound: `CS(=O)(=O)Nc1cccc(-n2c(/C=C/c3ccc(C#N)cc3)nc3ccccc3c2=O)c1`
## Output true

## Input Lab note: confirm whether the reported MIC for this compound is below 4 µg/mL, equality not counting. compound: `C#Cc1ccc(/C=C/c2nc3ccccc3c(=O)n2-c2cccc(C(=O)O)c2)cc1`
## Output true

## Input # strict comparison: is reported MIC < 4 µg/mL? input = CC(=O)NC[C@H]1CN(c2ccc(N3CCOCC3)c(F)c2)C(=O)O1 [LINEZOLID]
## Output false

## Input Lab note: confirm whether the reported MIC for this compound is below 4 µg/mL, equality not counting. compound: `N#Cc1ccc(/C=C/c2nc3ccccc3c(=O)n2-c2cccc(O)c2)cc1`
## Output true

----------
- TEST DETAILS: AUC (0 to infinity) in ICR mouse peritonitis model infected with methicillin resistant Staphylococcus aureus ATCC 27660 at 10 mg/kg, iv administered as single dose by UPLC analysis
- Type: ADME, organism-based
- Parameters: dose 10 mg/kg, time infinity, route intravenous
- CONDITION DETAILS: ICR, in vivo
ASSAY ENDPOINT: AUC(0-inf)

## Input Sample `N#Cc1ccc(/C=C/c2nc3ccccc3c(=O)n2-c2cccc(C(=O)O)c2)cc1` — what was its AUC(0-inf)?
## Output 24300 ng·h/mL

----------
Listed here are compounds together with their documented MIC.
- Tested on: Streptococcus oralis
- TEST DETAILS: Antibacterial activity against Streptococcus oralis ATCC 9811 incubated for 16 to 20 hrs by microdilution method
- Format: functional
# unit: µg/mL | format: bare number

| COMPOUND STRUCTURE | MEASUREMENT UNIT | MIC |
| --- | --- | --- |
| C#Cc1ccc(/C=C/c2nc3ccccc3c(=O)n2-c2cccc(C(=O)O)c2)cc1 | µg/mL | 128 |

Consider now this further compound.
## Input Find the recorded MIC belonging to `CN[C@@H](CC(C)C)C(=O)N[C@H]1C(=O)N[C@@H](CC(N)=O)C(=O)N[C@H]2C(=O)N[C@H]3C(=O)N[C@H](C(=O)N[C@@H](C(=O)O)c4cc(O)cc(O)c4-c4cc3ccc4O)[C@H](O)c3ccc(c(Cl)c3)Oc3cc2cc(c3O[C@H]2O[C@@H](CO)[C@H](O)[C@@H](O)[C@@H]2O[C@@H]2C[C@@](C)(N)[C@@H](O)[C@@H](C)O2)Oc2ccc(cc2Cl)[C@H]1O` and report it.
## Output 0.5

----------
- TEST DETAILS: Protein binding in human plasma at 10 uM after 6 hrs by UPLC based equillibrium dialysis method
- Type: ADME, cell-free
- CONDITION DETAILS: read-out: PPB (converted)
ASSAY ENDPOINT: fraction unbound at 6 h, 10 µM
// no unit, no text: just the number

## Input Name the recorded fraction unbound at 6 h, 10 µM for `N#Cc1ccc(/C=C/c2nc3ccccc3c(=O)n2-c2cccc(C(=O)O)c2)cc1` .
## Output 0.035

----------
- Test system: Mus musculus
- TEST DETAILS: AUC (0 to last) in ICR mouse peritonitis model infected with methicillin resistant Staphylococcus aureus ATCC 27660 at 10 mg/kg, iv administered as single dose measured up to 8 hrs by UPLC analysis
- Format: ADME, organism-based
- Parameters: dose 10 mg/kg, time 0 - last, route intravenous
- CONDITION DETAILS: in vivo, 8 h
ASSAY ENDPOINT: AUClast (µg·min/mL)
Report only the number, with the unit µg·min/mL understood.

Solved cases below.
| COMPOUND STRUCTURE | EXPERIMENTAL RESULT |
| --- | --- |
| CS(=O)(=O)Nc1cccc(-n2c(/C=C/c3ccc(F)cc3)nc3ccccc3c2=O)c1 | 819 |
| C#Cc1ccc(/C=C/c2nc3ccccc3c(=O)n2-c2cccc(C(=O)O)c2)cc1 | 1540 |
| N#Cc1ccc(/C=C/c2nc3ccccc3c(=O)n2-c2cccc(N)c2)cc1 | 204 |

## Input Any idea what its AUClast is? The compound is `N#Cc1ccc(/C=C/c2nc3ccccc3c(=O)n2-c2cccc(C(=O)NCCO)c2)cc1`
## Output 425

## Input Requested read-out: AUClast. Entry: `CC(=O)NCc1cccc(-n2c(/C=C/c3ccc(C#N)cc3)nc3ccccc3c2=O)c1`
## Output 142

## Input Entry under review: `CC(=O)Nc1cccc(-n2c(/C=C/c3ccc(F)cc3)nc3ccccc3c2=O)c1` . Reported AUClast?
## Output 284

----------
- TEST DETAILS: Drug level in uninfected thighs of ICR mouse neutropenic thigh model of methicillin-resistant Staphylococcus aureus NRS70 infection at 20 mg/kg, sc tid administered every 8 hrs starting from 1 hr post infection and measured 7 hrs post last dose by UPLC analysis
- Format: ADME, organism-based
- CONDITION DETAILS: read-out: Drug uptake
ASSAY ENDPOINT: concentration at 7 h (µg/mL)
# number only, unit µg/mL dropped from output

| COMPOUND STRUCTURE | ASSAY ENDPOINT | EXPERIMENTAL RESULT |
| --- | --- | --- |
| N#Cc1ccc(/C=C/c2nc3ccccc3c(=O)n2-c2cccc(C(=O)O)c2)cc1 | concentration at 7 h | 0.024 |

With those in mind, consider the next molecule.
## Input Record request: concentration at 7 h value, item `C#Cc1ccc(/C=C/c2nc3ccccc3c(=O)n2-c2cccc(C(=O)[O-])c2)cc1.[Na+]`
## Output 0.22

----------
- Tested on: Mus musculus
- TEST DETAILS: AUC (0 to last) in ICR mouse peritonitis model infected with methicillin resistant Staphylococcus aureus ATCC 27660 at 5 mg/kg, iv administered as single dose measured up to 8 hrs by UPLC analysis
- Assay type: ADME, organism-based
- Design: dose 5 mg/kg, route intravenous, time 0 - last
- CONDITION DETAILS: in vivo
ASSAY ENDPOINT: AUClast (µg·min/mL)
# value in µg·min/mL; strip the unit string

The cases that follow already have their AUClast on record.
| COMPOUND STRUCTURE | MEASUREMENT UNIT | AUClast |
| --- | --- | --- |
| CC(=O)Nc1cccc(-n2c(/C=C/c3ccc(C#N)cc3)nc3ccccc3c2=O)c1 | µg·min/mL | 38 |
| O=c1c2ccccc2nc(/C=C/c2ccc(F)cc2)n1-c1cccc(O)c1 | µg·min/mL | 466 |
| CS(=O)(=O)Nc1cccc(-n2c(/C=C/c3ccc(C#N)cc3)nc3ccccc3c2=O)c1 | µg·min/mL | 31 |

Now examine the next entry.
## Input Consider the compound shown here: `N#Cc1ccc(/C=C/c2nc3ccccc3c(=O)n2-c2cccc(O)c2)cc1` What is its recorded AUClast?
## Output 26.8

----------
- TEST DETAILS: AUC (0 to infinity) in ICR mouse peritonitis model infected with methicillin resistant Staphylococcus aureus ATCC 27660 at 10 mg/kg, po administered as single dose through gavage by UPLC analysis
- Format: ADME, organism-based
- Set-up: dose 10 mg/kg, route oral, time infinity
- CONDITION DETAILS: ICR, in vivo
ASSAY ENDPOINT: AUC(0-inf) (ng·h/mL)
Respond numerically; units are ng·h/mL and should not be typed.

## Input Look at this molecule and give its reported AUC(0-inf). `N#Cc1ccc(/C=C/c2nc3ccccc3c(=O)n2-c2cccc(C(=O)O)c2)cc1`
## Output 12300

----------
- TEST DETAILS: Oral bioavailability in ICR mouse peritonitis model infected with methicillin resistant Staphylococcus aureus ATCC 27660 at 10 mg/kg administered as single dose through gavage by UPLC analysis
- Format: ADME, organism-based
- CONDITION DETAILS: ICR, in vivo
ASSAY ENDPOINT: bioavailability

## Input What value of bioavailability has been recorded for this entry: `N#Cc1ccc(/C=C/c2nc3ccccc3c(=O)n2-c2cccc(C(=O)O)c2)cc1`
## Output 50%

----------
- TEST DETAILS: Clearance in ICR mouse peritonitis model infected with methicillin resistant Staphylococcus aureus ATCC 27660 at 10 mg/kg, iv administered as single dose measured up to 8 hrs by UPLC analysis
- Format: ADME, organism-based
- CONDITION DETAILS: in vivo
ASSAY ENDPOINT: clearance
Please answer using the number first and the unit second.

## Input I am curious: what clearance value has been reported for `N#Cc1ccc(/C=C/c2nc3ccccc3c(=O)n2-c2cccc(C(=O)O)c2)cc1` ?
## Output 6.9 mL/min/kg
